- Assay procedure: in vivo
- Condition summary: both, rhesus monkey, in vivo, po, 20 mg/kg
Outcome measure: AUC(0-t) (µM·h)
// note: answer is a bare numeric in µM·h

Which AUC(0-t) reading was recorded for the compound "N[C@@H](CC(=O)N1CCn2c(nnc2C(F)(F)F)C1)Cc1cc(F)c(F)cc1F" ?
49.6

###

- Assay procedure: in vivo
- Condition summary: both, rhesus monkey, in vivo, po, 5 mg/kg
Outcome measure: AUC(0-t) (µM·h)
// note: answer is a bare numeric in µM·h

Which AUC(0-t) reading was recorded for the molecule "N[C@@H](CC(=O)N1CCn2c(nnc2C(F)(F)F)C1)Cc1cc(F)c(F)cc1F" ?
7.83

###

- Assay procedure: in vivo
- Condition summary: both, rhesus monkey, in vivo, po, 20 mg/kg
Outcome measure: AUC(0-inf) (µM·h)
// note: answer is a bare numeric in µM·h

Which AUC(0-inf) reading was recorded for the compound "N[C@@H](CC(=O)N1CCn2c(nnc2C(F)(F)F)C1)Cc1cc(F)c(F)cc1F" ?
50.9

###

- Assay procedure: in vivo
- Condition summary: both, rhesus monkey, in vivo, po, 100 mg/kg
Outcome measure: half-life (h)
// note: answer is a bare numeric in h

Which half-life reading was recorded for the molecule N[C@@H](CC(=O)N1CCn2c(nnc2C(F)(F)F)C1)Cc1cc(F)c(F)cc1F [sitagliptin] ?
6.7

###

- Assay procedure: in vivo
- Condition summary: both, rhesus monkey, in vivo, po, 20 mg/kg
Outcome measure: Cmax (µM)
// note: answer is a bare numeric in µM

Which Cmax reading was recorded for the molecule N[C@@H](CC(=O)N1CCn2c(nnc2C(F)(F)F)C1)Cc1cc(F)c(F)cc1F [sitagliptin] ?
7.06

###

- Assay procedure: in vivo
- Condition summary: both, Macaca mulatta
Outcome measure: Kp at 5 h
Note: the reply should be a number with no unit written.

Which Kp at 5 h reading was recorded for the compound "N[C@@H](CC(=O)N1CCn2c(nnc2C(F)(F)F)C1)Cc1cc(F)c(F)cc1F" ?
0.01

###

- Assay procedure: in vivo
- Condition summary: both, rhesus monkey, in vivo, po, 20 mg/kg
- Source text: Animals included Macaca mulatta of 7 to 20 kg weight, mixed gender, 12 to 19 years of age (n = 5 to 7 per group). […] Commercially prepared monkey chow was distributed twice per day along with daily food enrichment, and water was available ad libitum. Monkeys were observed daily for food consumption and overall well-being. […] Further samples were collected without the inhibitor for DPP-4 analysis to permit quantification of DPP-4 inhibition. […]
Outcome measure: half-life (h)
// note: answer is a bare numeric in h

Which half-life reading was recorded for the compound N[C@@H](CC(=O)N1CCn2c(nnc2C(F)(F)F)C1)Cc1cc(F)c(F)cc1F [sitagliptin] ?
5

###

- Assay procedure: in vivo
- Condition summary: both, rhesus monkey, in vivo, po, 100 mg/kg
Outcome measure: AUC(0-t) (µM·h)
// note: answer is a bare numeric in µM·h

Which AUC(0-t) reading was recorded for the compound "N[C@@H](CC(=O)N1CCn2c(nnc2C(F)(F)F)C1)Cc1cc(F)c(F)cc1F" ?
193

###

- Assay procedure: in vivo
- Condition summary: both, rhesus monkey, in vivo, po, 100 mg/kg
Outcome measure: Cmax (µM)
// note: answer is a bare numeric in µM

Which Cmax reading was recorded for the molecule N[C@@H](CC(=O)N1CCn2c(nnc2C(F)(F)F)C1)Cc1cc(F)c(F)cc1F [sitagliptin] ?
13.7
